- protocolDescription: Apparent volume of distribution in Sprague-Dawley rat at 5 mg/kg, iv measured upto 24 hrs by LC-MS/MS analysis
- Type: ADME, organism-based
- conditionsUsed: in vivo, read-out: Vz
property: Vd (L/kg)
# unit: L/kg | format: bare number

### Prompt Need Vd, item NCCCNC(=O)c1ccc(COc2c(N)cc(Cl)cc2Cl)cc1
### Response 24.7

* * *

- protocolDescription: Cmax in Sprague-Dawley rat at 10 mg/kg, po measured upto 24 hrs by LC-MS/MS analysis
- Format: ADME, organism-based
- conditionsUsed: in vivo
Please provide measured Cmax for the entries that follow.
# number only, unit ng/mL dropped from output

### Prompt Consider the molecule NCC(=O)Nc1cc(Cl)cc(Cl)c1OCc1ccc(C(=O)Nc2ccccc2N)cc1 and give its measured Cmax.
### Response 233

### Prompt Give its Cmax value. Item: NCCCNC(=O)c1ccc(COc2c(N)cc(Cl)cc2Cl)cc1
### Response 69.3

* * *

- protocolDescription: Half life in Sprague-Dawley rat at 2 mg/kg, iv measured upto 24 hrs by LC-MS/MS analysis
- Type: ADME, organism-based
- conditionsUsed: in vivo
property: half-life (h)
Write the answer as a number in h, unit excluded.

### Prompt I would be grateful if you could share the reported half-life for NCC(=O)Nc1cc(Cl)cc(Cl)c1OCc1ccc(C(=O)Nc2ccccc2N)cc1 .
### Response 4.08
